Test system: ragweed
Test: Test C postemergence
Assay type: in vivo, Ambrosia artemisiifolia
Conditions: Postemergence, 125 g ai/ha; 0 to 100 scale (0 no effect, 100 complete control), 10 days
PROPERTY: Plant response rating, Ragweed
One number for each entry.

Here are 3 compounds together with their reported answers.
1) Cc1cccc2c1OC(C(F)(F)F)CN2C(=O)c1cccc(-n2cnc(C(C)C)n2)c1 (racemic) [Compound 301]
30
2) CCc1ncn(-c2cc(C(=O)N3CC(C(F)(F)F)Oc4c(Cl)cccc43)ccn2)n1 (racemic)
0
3) Cc1ccc(-n2cnc(CS(C)(=N)=O)n2)cc1C(=O)N1C[C@H](C)Oc2c(Cl)cccc21 (stereo partly shown)
70

Respectfully, I request Plant response rating, Ragweed for each entry included below.
1. CCOC(=O)c1ncn(-c2ccc(C)c(C(=O)N3C[C@H](C)Oc4c(Cl)cccc43)c2)n1
2. Cc1ccc(-n2cnc(C(C)C)n2)cc1C(=O)N1CC(C(F)(F)F)Oc2c(Cl)cccc21 (stereo not shown)
3. CCOc1ncn(-c2cccc(C(=O)N3C[C@H](C)Oc4c(Cl)cccc43)c2)n1
4. CCOC[C@H]1CN(C(=O)c2cc(-n3cnc(CC)n3)cc3c2OCCO3)c2cccc(Cl)c2O1

Return:
1. 50
2. 50
3. 0
4. 70

###

Test system: galium
Assay: Test A postemergence
Format: in vivo, Galium aparine
Conditions: 1000 g ai/ha, Postemergence; 0 to 100 scale
Provide the reported Plant response rating, Galium of each item.
One number for each entry.

Answered examples (2):
1. CC1CN(C(=O)c2ccnc(-n3cncn3)c2)c2ccccc2O1 (stereo not drawn)
90
2. O=C(c1ccnc(-n2cncn2)c1)N1CC(C(F)(F)F)Oc2c(Cl)cccc21 (stereo not drawn)
100

Kindly give each listed record's Plant response rating, Galium.
1. C[C@H]1CN(C(=O)c2cccc(-n3cnnn3)c2)c2cccc(Cl)c2O1
2. C[C@H]1CN(C(=O)c2cccc(-n3cnnc3)c2)c2cccc(Cl)c2O1
3. Cc1noc(-c2cccc(C(=O)N3C[C@H](C)Oc4c(Cl)cccc43)c2)n1
4. Cc1nc(-c2cccc(C(=O)N3C[C@H](C)Oc4c(Cl)cccc43)c2)no1

Return:
1. 70
2. 30
3. 80
4. 40

###

For each record, write down the corresponding Plant response rating, Ryegrass, Italian.
System: ryegrass, Italian
Experiment: Test C postemergence
Assay type: in vivo, Lolium multiflorum
Conditions: Postemergence, 500 g ai/ha, 10 days, visual 0 to 100 scale (0 no effect, 100 complete control)
Answers are plain numbers.

Study these solved cases before continuing.
1) COc1cc(C(=O)N2C[C@H](C)Oc3c(Cl)cccc32)cc(-n2cnc(C(C)(C)C)n2)c1 [Compound 213]
60
2) CCc1c(C)cc(-n2cnc(C(C)C)n2)cc1C(=O)N1C[C@H](C)Oc2c(Cl)cccc21 [Compound 179]
20
3) C[C@H]1CN(C(=O)c2cc(-n3cncn3)cc3c2OCCO3)c2cccc(Cl)c2O1 [Compound 153]
100

The following compounds each have a reported value; give each one's Plant response rating, Ryegrass, Italian.
1. COC[C@H]1CN(C(=O)c2cc(-n3cncn3)ccc2OC)c2cccc(Cl)c2O1 [Compound 234]
2. CCn1cnc(-c2cccc(C(=O)N3C[C@H](C)Oc4c(Cl)cccc43)c2)n1 [Compound 173]

Return:
1. 90
2. 0

###

Tested on: kochia
Experiment: Test C postemergence
Format: in vivo, Bassia scoparia
Settings: 125 g ai/ha, postemergence, 10 days; 0 to 100 scale, 0 no effect, 100 complete control
PROPERTY: Plant response rating, Kochia

1. CC(C)c1ncn(-c2cccc(C(=O)N3CC(C(F)(F)F)Oc4c(Cl)cccc43)c2)n1 (single isomer, unassigned) [Compound 288]
40
2. Cc1cccc2c1OC(C)CN2C(=O)c1cccc(-n2ncnc2C2CC2)c1 (racemic)
0
3. Cc1cccc2c1O[C@@H](C)CN2C(=O)c1cccc(-n2cnc(N(C)C)n2)c1
70
4. CC(C)c1ncn(-c2ccc(SC(F)(F)F)c(C(=O)N3C[C@H](C)Oc4c(Cl)cccc43)c2)n1
50
5. Cc1ccc(-n2cnc(C(C)C)n2)cc1C(=O)N1C[C@H](C)Oc2c(F)cccc21
30

Parameters: items (list). Returns: Plant response rating, Kochia for each item.
1. COc1ccc(-n2cncn2)cc1C(=O)N1C[C@H](C)Oc2c(F)cccc21
2. Cc1cccc2c1O[C@@H](C)CN2C(=O)c1cccc(-n2nccn2)c1
3. CCc1ncn(-c2ccc(C)c(C(=O)N3CC(C(F)(F)F)Oc4c(Cl)cccc43)c2)n1 (racemic) [Compound 290]

Return:
1: 30; 2: 0; 3: 80

###

Test system: wheat
Assay: Test C preemergence
Type: in vivo, Triticum aestivum
Settings: Test C, preemergence, 125 g ai/ha; 0 to 100 scale (0 no effect, 100 complete control)
PROPERTY: Wheat plant response rating
One number for each entry.

Recorded Wheat plant response rating, per entry:
1. C[C@H]1CN(C(=O)c2cc(-n3cnc(C(C)(C)C)n3)cc3c2OCCO3)c2cccc(Cl)c2O1
10
2. Cc1cccc2c1OC(C(F)(F)F)CN2C(=O)c1cccc(-n2cnc(C(C)C)n2)c1 (racemic) [Compound 301]
40
3. Cc1ccc(-n2cnc(C(C)C)n2)cc1C(=O)N1C[C@H](C)Oc2c(F)cccc21
60

Hi there! I need Wheat plant response rating for each item below, if you can.
1. COc1cc(C(=O)N2C[C@H](C)Oc3c(Cl)cccc32)cc(-n2cnc(C(C)C)n2)c1
2. CCc1ncn(-c2cc(OC)cc(C(=O)N3C[C@H](C)Oc4c(Cl)cccc43)c2)n1
3. COc1cc(-n2cnc(C(C)C)n2)cc(C(=O)N2C[C@H](C)Oc3c(Cl)cccc32)c1OC
4. COC[C@H]1CN(C(=O)c2cc(-n3cnc(C(C)C)n3)ccc2OC)c2cccc(Cl)c2O1
5. Cc1cccc2c1OC(C)CN2C(=O)c1cccc(-n2ncnc2C2CC2)c1 (racemic)

Return:
1: 40; 2: 20; 3: 0; 4: 20; 5: 0

For every record below, what is its Wheat plant response rating?
1. Cc1cccc2c1OC(C(F)(F)F)CN2C(=O)c1cccc(-n2cnc(C(C)C)n2)c1 (single isomer, unassigned) [Compound 302]
2. Cc1cccc2c1O[C@@H](C)CN2C(=O)c1cccc(-n2cnc(N)n2)c1
3. Cc1ccc(-n2cnc(C3(O)CCCC3)n2)cc1C(=O)N1C[C@H](C)Oc2c(Cl)cccc21

Return:
20
0
0

###

Test system: soybean
Test: Test C preemergence
Assay type: in vivo, Glycine max
Conditions: Test C, preemergence, 125 g ai/ha; 0 to 100 scale (0 no effect, 100 complete control)
Task for the reader: assign each of the following compounds its reported Soybean plant response rating.

1) C[C@H]1CN(C(=O)c2cc(-n3cnc(C4CCC4)n3)cc3c2OCCO3)c2cccc(Cl)c2O1
50
2) CC(C)c1ncn(-c2cc3c(c(C(=O)N4C[C@H](C)Oc5c(Cl)cccc54)c2)OCCO3)n1
70
3) COC[C@H]1CN(C(=O)c2cc(-n3cnc(C4CCC4)n3)ccc2OC)c2cccc(Cl)c2O1
40
4) CC(C)=C(C)c1ncn(-c2cccc(C(=O)N3C[C@H](C)Oc4c(C)cccc43)c2)n1
30
5) COc1cc(C(=O)N2C[C@H](C)Oc3c(Cl)cccc32)cc(-n2cnc(C)n2)c1
80

Look up Soybean plant response rating for the entries below, preserving their order.
1. CC(C)c1ncn(-c2cc3c(c(C(=O)N4C[C@H](C)Oc5c(Cl)cccc54)c2)OCO3)n1
2. C[C@H]1CN(C(=O)c2cc(-n3cnc(C4CC4)n3)cc3c2OCCO3)c2cccc(Cl)c2O1

Return:
[50, 80]

###

Provide the reported Oat, Wild plant response rating of each item.
System: oat, wild
Assay: Test C preemergence
Assay type: in vivo, Avena fatua
Details: 500 g ai/ha, preemergence; 0 to 100 scale (0 no effect, 100 complete control)
Answers are plain numbers.

Answered examples (4):
1) Cc1cccc2c1O[C@@H](C)CN2C(=O)c1cccc(-n2cnc([N+](=O)[O-])n2)c1
0
2) COC(=O)N(C)c1ncn(-c2cccc(C(=O)N3C[C@H](C)Oc4c(C)cccc43)c2)n1
30
3) COC[C@H]1CN(C(=O)c2cc(-n3cnc(C(C)(C)O)n3)ccc2OC)c2cccc(Cl)c2O1
60
4) COC[C@H]1CN(C(=O)c2cc(-n3cnc(C(C)(C)C)n3)cc3c2OCCO3)c2cccc(Cl)c2O1
80

# map each compound to its Oat, Wild plant response rating
1. CCOC[C@H]1CN(C(=O)c2cc(-n3cnc(C(C)C)n3)cc3c2OCO3)c2cccc(Cl)c2O1
2. CC(C)c1ncn(-c2ccc([S+](C)[O-])c(C(=O)N3C[C@H](C)Oc4c(Cl)cccc43)c2)n1 (stereo partly drawn)

Return:
1. 30
2. 90

###

System: kochia
Assay: Test C preemergence
Type: in vivo, Bassia scoparia
Conditions: Preemergence, 500 g ai/ha; visual rating after 10 days, 0 to 100 scale (0 no effect, 100 complete control)
Record form. Attribute: Plant response rating, Kochia. Fill in for each entry.

Recorded results for 3 molecules are shown here.
1. COc1cc(C(=O)N2C[C@H](C)Oc3c(Cl)cccc32)cc(-n2cnc(C(C)C)n2)c1 [Compound 212]
90
2. C[C@H]1CN(C(=O)c2cc(-n3cnc(C4CC4)n3)cc3c2OCCO3)c2cccc(Cl)c2O1 [Compound 156]
100
3. Cc1ccc(-n2cnc(C(C)(C)O)n2)cc1C(=O)N1C[C@H](C)Oc2c(C)cccc21 [Compound 256]
90

Enquiry: Bench note: what Plant response rating, Kochia did CC(C)n1cnc(-c2cccc(C(=O)N3C[C@H](C)Oc4c(Cl)cccc43)c2)n1 [Compound 172] show?
Return: 0
